tested on: SET 2 (JAK2 V617F) cells; assay: CCK-8 cell proliferation detection, SET2 cells; format: cell-based; settings: Homo sapiens, SET-2; Table 2; CCK-8, 72 hrs
Hi! Could you tag entries with IC50 below 4 µM as true, and those at or above as false? Much appreciated.

INSERT INTO assay_data (compound, label_value) VALUES
  ('CC(Oc1cc(-c2cnn3cccnc23)cnc1N)c1cc(F)ccc1Cl (stereo not shown)', 'false'),
  ('CC(Oc1cc(-c2cccc(C3CCNCC3)c2)cnc1N)c1cc(F)ccc1Cl (stereo not shown)', 'true'),
  ('CC(Oc1cc(-c2cnoc2)cnc1N)c1cc(F)ccc1Cl (stereo not shown)', 'false'),
  ('CC(Oc1cc(-c2cnn(C3CCNCC3)c2)cnc1N)c1c(Cl)cccc1Cl (stereo not shown)', 'true'),
  ('C[C@@H](Oc1cc(-c2cnn(C3CCOCC3)c2)cnc1N)c1c(Cl)ccc(F)c1Cl', 'true'),
  ('C[C@@H](Oc1cc(-c2cncc(N3CCNCC3)c2)cnc1N)c1c(Cl)ccc(F)c1Cl', 'true'),
  ('CCOC(C)n1cc(-c2cnc(N)c(OC(C)c3cc(F)ccc3Cl)c2)cn1 (stereo not shown)', 'false'),
  ('CC(Oc1cc(-c2cccc(N3CCNCC3)c2)cnc1N)c1cc(F)ccc1Cl (stereo not shown)', 'true'),
  ('CC(Oc1cc(-c2cn(C)cn2)cnc1N)c1cc(F)ccc1Cl (stereo not shown)', 'false'),
  ('CC(Oc1cc(-c2cnn(C3COC3)c2)cnc1N)c1cc(F)ccc1Cl (stereo not shown)', 'false'),
  ('COc1ccc(F)cc1C(C)Oc1cc(-c2cnn(C3CCNCC3)c2)cnc1N (stereo not shown)', 'true'),
  ('CC(Oc1cc(-c2ccccc2)cnc1N)c1c(Cl)ccc(F)c1Cl (stereo not shown)', 'false'),
  ('CC(Oc1cc(Nc2nccc3ccccc23)cnc1N)c1cc(F)ccc1Cl (stereo not shown)', 'false'),
  ('Cc1cc(Nc2cnc(N)c(OC(C)c3cc(F)ccc3Cl)c2)nn1C (stereo not shown)', 'false'),
  ('CC(Oc1cc(Nc2cc3ccccc3cn2)cnc1N)c1cc(F)ccc1Cl (stereo not shown)', 'false'),
  ('CC(Oc1cc(Nc2ccccc2)cnc1N)c1cc(F)ccc1Cl (stereo not shown)', 'true'),
  ('CC(Oc1cc(-c2cn(C)c3ccccc23)cnc1N)c1cc(F)ccc1Cl (stereo not shown)', 'false');

Each recorded value in this set is attributed to patent US20210179598A1.
